# IC50 per record follows
target: Somatostatin receptor type 2 (Homo sapiens); experiment: Displacement of [125I]-[Leu8, DTrp22, Tyr25]SRIF-28 from human cloned sst2 receptor expressed in CCL39 cells
Sequence (P30874 whole entry): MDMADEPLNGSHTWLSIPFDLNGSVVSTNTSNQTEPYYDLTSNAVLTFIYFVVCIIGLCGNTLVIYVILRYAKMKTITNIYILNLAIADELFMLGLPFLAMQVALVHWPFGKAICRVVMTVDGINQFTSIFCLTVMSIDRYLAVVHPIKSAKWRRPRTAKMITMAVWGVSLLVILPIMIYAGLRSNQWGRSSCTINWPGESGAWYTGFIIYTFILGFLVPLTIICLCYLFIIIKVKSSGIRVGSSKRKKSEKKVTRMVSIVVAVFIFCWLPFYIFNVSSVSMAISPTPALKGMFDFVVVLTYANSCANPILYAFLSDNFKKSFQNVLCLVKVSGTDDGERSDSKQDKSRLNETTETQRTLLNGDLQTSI
Don't forget the unit after the value.

Some molecules with recorded IC50:
{"smiles-code": "CC(=O)N[C@@H]1SS[C@H](C(=O)O)NC(=O)[C@H](Cc2ccccc2)NC(=O)[C@H]([C@@H](C)O)NC(=O)[C@H](CCCCN)NC(=O)[C@@H](Cc2c[nH]c3ccccc23)NC(=O)[C@H](Cc2ccccc2)NC(=O)[C@H](Cc2ccccc2)NC1=O", "parameter": "IC50", "observed-measurement": "34 nM"}
{"smiles-code": "CC(=O)N[C@H]1SSC[C@H](C(=O)O)NC(=O)[C@H](Cc2ccccc2)NC(=O)[C@H]([C@@H](C)O)NC(=O)[C@H](CCCCN)NC(=O)[C@@H](Cc2c[nH]c3ccccc23)NC(=O)[C@H](Cc2ccccc2)NC(=O)[C@H](Cc2ccccc2)NC1=O", "parameter": "IC50", "observed-measurement": "13 nM"}
{"smiles-code": "CC(=O)N[C@@H]1CSSC[C@H](C(=O)O)NC(=O)[C@H](Cc2ccccc2)NC(=O)[C@H]([C@@H](C)O)NC(=O)[C@H](CCCCN)NC(=O)[C@@H](Cc2c[nH]c3ccccc23)NC(=O)[C@H](Cc2ccccc2)NC(=O)[C@H](Cc2ccccc2)NC1=O", "parameter": "IC50", "observed-measurement": "9 nM"}
{"smiles-code": "CC(=O)N[C@H]1CSS[C@@H](C(=O)O)NC(=O)[C@H](Cc2ccccc2)NC(=O)[C@H]([C@@H](C)O)NC(=O)[C@H](CCCCN)NC(=O)[C@@H](Cc2c[nH]c3ccccc23)NC(=O)[C@H](Cc2ccccc2)NC(=O)[C@H](Cc2ccccc2)NC1=O", "parameter": "IC50", "observed-measurement": "5.4 nM"}
{"smiles-code": "CC(=O)N[C@H]1SS[C@H](C(=O)O)NC(=O)[C@H](Cc2ccccc2)NC(=O)[C@H]([C@@H](C)O)NC(=O)[C@H](CCCCN)NC(=O)[C@@H](Cc2c[nH]c3ccccc23)NC(=O)[C@H](Cc2ccccc2)NC(=O)[C@H](Cc2ccccc2)NC1=O", "parameter": "IC50", "observed-measurement": "109 nM"}

Then there is this molecule:
Q: Recorded IC50 of CC(=O)N[C@@H]1SSC[C@@H](C(=O)O)NC(=O)[C@H](Cc2ccccc2)NC(=O)[C@H]([C@@H](C)O)NC(=O)[C@H](CCCCN)NC(=O)[C@@H](Cc2c[nH]c3ccccc23)NC(=O)[C@H](Cc2ccccc2)NC(=O)[C@H](Cc2ccccc2)NC1=O , please.
Result: 33 nM
